Tested on: P. aeruginosa CIP107051 (TEM-24)
Assay: MIC broth microdilution, alone and synergy with ceftazidime
Details: strain CIP107051; compound fixed at 4 μg/mL
valueKind: MIC of CAZ in combination with compound at 4 μg/mL (µg/mL)
Give a bare numeral; the unit µg/mL is implied.

[[record]]
compound = "CC(C)(C)OC(=O)NCCn1c2c(sc1=O)C1CN(C2)C(=O)N1OS(=O)(=O)[O-].[Na+] (stereo not drawn) [Example 3]"
testsystem = "P. aeruginosa CIP107051 (TEM-24)"
unittag = "µg/mL"
endpointresult = 64


Give its MIC of CAZ in combination with compound at 4 μg/mL value. Item: COC(=O)Cn1c2c(sc1=O)C1CN(C2)C(=O)N1OS(=O)(=O)[O-].[Na+] (stereo not drawn) [Example 2]
16

Further, for Cn1c2c(sc1=O)C1CN(C2)C(=O)N1OS(=O)(=O)[O-].[Na+] (stereo not drawn) [Example 1] ?
4

###

Target: SHV-1 (Klebsiella pneumoniae)
Sequence (P0AD64 22-286): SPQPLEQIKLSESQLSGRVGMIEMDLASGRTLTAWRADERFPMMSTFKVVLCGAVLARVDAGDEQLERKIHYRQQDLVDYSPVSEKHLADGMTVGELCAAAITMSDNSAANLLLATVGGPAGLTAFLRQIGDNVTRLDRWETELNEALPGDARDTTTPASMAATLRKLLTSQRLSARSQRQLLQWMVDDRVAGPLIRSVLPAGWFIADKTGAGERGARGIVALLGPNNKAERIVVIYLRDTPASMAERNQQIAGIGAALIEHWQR
Experiment: β-lactamase inhibitory activity, nitrocefin hydrolysis
pIC50: −log10 of the molar value.
Values of pIC50 greater than or equal to 8 map to 1; values below map to 0.

Example results:
[[record]]
compound = "NCCn1c2c(sc1=O)C1CN(C2)C(=O)N1OS(=O)(=O)[O-].[Na+] (stereo not drawn)"
class = 0

[[record]]
compound = "CC(C)(C)OC(=O)NCCn1c2c(sc1=O)C1CN(C2)C(=O)N1OS(=O)(=O)[O-].[Na+] (stereo not drawn)"
class = 0


Attention now turns to another entry.
Check if pIC50 >= 8 (inclusive). Item: COC(=O)Cn1c2c(sc1=O)C1CN(C2)C(=O)N1OS(=O)(=O)[O-].[Na+] (stereo not drawn)
1

###

Tested on: E. cloacae UFR70 (TEM-1, CTX-M-15, CMY-2, OXA-1, Porin loss)
Experiment: MIC broth microdilution, alone and synergy with ceftazidime
Conditions: strain UFR70; compound fixed at 4 μg/mL
The reader will find reported MIC of CAZ in combination with compound at 4 μg/mL values listed item by item below.

Some compounds with recorded MIC of CAZ in combination with compound at 4 μg/mL:
[[record]]
compound = "O=C1N2Cc3c(sc(=O)n3CCO)C(C2)N1OS(=O)(=O)[O-].[Na+] (stereo not shown) [Example 5]"
endpointresult = "<0.25 µg/mL"

[[record]]
compound = "NCCn1c2c(sc1=O)C1CN(C2)C(=O)N1OS(=O)(=O)[O-].[Na+] (stereo not shown) [Example 4]"
endpointresult = "<0.25 µg/mL"

[[record]]
compound = "Cn1c2c(sc1=O)C1CN(C2)C(=O)N1OS(=O)(=O)[O-].[Na+] (stereo not shown) [Example 1]"
endpointresult = "<0.25 µg/mL"


Consider the record given below.
I am curious: what MIC of CAZ in combination with compound at 4 μg/mL value has been reported for COC(=O)Cn1c2c(sc1=O)C1CN(C2)C(=O)N1OS(=O)(=O)[O-].[Na+] (stereo not shown) [Example 2] ?
1 µg/mL

###

Entries and their pIC50 values follow.
Biological target: UniProt:Q9F663
Sequence (Q9F663 25-293 limits assumed): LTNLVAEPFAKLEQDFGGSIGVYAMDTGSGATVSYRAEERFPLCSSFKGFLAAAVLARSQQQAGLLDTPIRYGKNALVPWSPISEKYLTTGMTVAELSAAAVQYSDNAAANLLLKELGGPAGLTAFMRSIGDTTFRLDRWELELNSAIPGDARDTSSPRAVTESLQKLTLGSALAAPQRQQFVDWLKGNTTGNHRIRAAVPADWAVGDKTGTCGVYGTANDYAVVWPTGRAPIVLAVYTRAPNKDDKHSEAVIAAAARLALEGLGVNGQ
Test: β-lactamase inhibitory activity, nitrocefin hydrolysis
As a rule, pIC50 stands for the negative log10 of the concentration, concentration in M.

Consider the following illustrative entries.
[[record]]
compound = "Cn1c2c(sc1=O)C1CN(C2)C(=O)N1OS(=O)(=O)[O-].[Na+] (stereo not drawn) [Example 1]"
endpointresult = 8.48

[[record]]
compound = "CC(C)(C)OC(=O)NCCn1c2c(sc1=O)C1CN(C2)C(=O)N1OS(=O)(=O)[O-].[Na+] (stereo not drawn) [Example 3]"
endpointresult = 8.47

[[record]]
compound = "N=C(N)NCCn1c2c(sc1=O)C1CN(C2)C(=O)N1OS(=O)(=O)[O-].[Na+] (stereo not drawn) [Example 6]"
endpointresult = 8.24

[[record]]
compound = "COC(=O)Cn1c2c(sc1=O)C1CN(C2)C(=O)N1OS(=O)(=O)[O-].[Na+] (stereo not drawn) [Example 2]"
endpointresult = 8.89

[[record]]
compound = "NCCn1c2c(sc1=O)C1CN(C2)C(=O)N1OS(=O)(=O)[O-].[Na+] (stereo not drawn) [Example 4]"
endpointresult = 8.13


Proceeding to the next compound to report its pIC50.
// returns reported pIC50 for input O=C1N2Cc3c(sc(=O)n3CCO)C(C2)N1OS(=O)(=O)[O-].[Na+] (stereo not drawn) [Example 5]
8.77
